# protocol details: self-splicing fitness, log relative to wild type (ln ratio); higher = more splicing; Tetrahymena group I intron in knt gene, E. coli kanamycin selection, DiMSum; sequences stand for … in CUCUCU…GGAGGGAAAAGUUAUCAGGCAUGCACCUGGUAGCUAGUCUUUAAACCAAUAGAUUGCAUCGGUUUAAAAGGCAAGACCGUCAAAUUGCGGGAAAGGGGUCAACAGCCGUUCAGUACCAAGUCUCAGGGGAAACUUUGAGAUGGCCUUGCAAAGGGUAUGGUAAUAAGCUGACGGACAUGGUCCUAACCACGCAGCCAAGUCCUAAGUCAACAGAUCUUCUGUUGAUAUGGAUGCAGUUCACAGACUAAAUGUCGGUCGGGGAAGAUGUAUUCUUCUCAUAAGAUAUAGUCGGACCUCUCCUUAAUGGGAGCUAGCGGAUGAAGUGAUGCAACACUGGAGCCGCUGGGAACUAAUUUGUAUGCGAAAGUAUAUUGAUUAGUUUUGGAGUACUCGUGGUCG;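 note: selection with 25 µg/mL kanamycin versus none on LB agar overnight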
# study conditions: 30 °C
Hi all, reminder that labels come from self-splicing fitness (ln), split as Low (below -3), Mid (-3 to below -2), High (-2 or more)

Completed entries (count: 4):
- ordered residues: "UCCGAGCAAUAUUACGGUGC"
  class: "Low"
- ordered residues: "UUAUAGCAAUAUUACGCUUG"
  class: "High"
- ordered residues: "UCCAAGCAAUAUUACGGUCC"
  class: "Mid"
- ordered residues: "CUAGAGCAAUAUUACGCGAA"
  class: "Low"

Into which category would you place "AACUAGCAAUAUUACGGUUC" ?
Low

Into which category would you place "GGAAAGCAAUAUUACGGCAU" ?
High

Into which category would you place "AACAAGCAAUAUUACGCGUA" ?
High

Into which category would you place "UCUCAGCAAUAUUACGGGUG" ?
High

Into which category would you place "GGUUAGCAAUAUUACGCUGU" ?
Mid

Into which category would you place "GCACAGCAAUAUUACGUACC" ?
High

Into which category would you place "GGGAAGCAAUAUUACGUGCU" ?
High

Into which category would you place "CAGAAGCAAUAUUACGUUGC" ?
Low

Into which category would you place "UACUAGCAAUAUUACGGACA" ?
High

Into which category would you place "UUAGAGCAAUAUUACGGUAC" ?
Low

Into which category would you place "UGUUAGCAAUAUUACGUAGU" ?
Low

Into which category would you place "AGUUAGCAAUAUUACGCAGG" ?
Mid

Into which category would you place "UCGCAGCAAUAUUACGAGGC" ?
Low

Into which category would you place "CCCAAGCAAUAUUACGAGUU" ?
Low

Into which category would you place "UGACAGCAAUAUUACGGCCU" ?
High

----------
# protocol details: self-splicing fitness, log relative to wild type (ln ratio); higher = more splicing; Tetrahymena group I intron in knt gene, E. coli kanamycin selection, DiMSum; sequences stand for … in CUCUCU…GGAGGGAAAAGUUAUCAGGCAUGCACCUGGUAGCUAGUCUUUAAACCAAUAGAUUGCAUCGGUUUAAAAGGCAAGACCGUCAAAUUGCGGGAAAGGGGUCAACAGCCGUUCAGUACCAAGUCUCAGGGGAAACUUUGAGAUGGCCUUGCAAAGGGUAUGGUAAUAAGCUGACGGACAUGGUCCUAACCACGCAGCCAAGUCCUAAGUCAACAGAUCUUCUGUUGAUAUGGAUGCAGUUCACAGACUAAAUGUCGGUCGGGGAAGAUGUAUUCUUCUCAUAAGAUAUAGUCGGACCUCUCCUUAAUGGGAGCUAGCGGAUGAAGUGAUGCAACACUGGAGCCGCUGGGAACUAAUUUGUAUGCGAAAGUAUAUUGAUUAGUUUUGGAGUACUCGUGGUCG
# study conditions: 30 °C
# self-splicing fitness (ln) annotations
# print the numeric value only

Please review the following examples before continuing.
- ordered residues: "AGGUAGCAAUAUUACGUAGC"
  self-splicing fitness (ln): -2.92
- ordered residues: "AGUGAGCAAUAUUACGGCCU"
  self-splicing fitness (ln): -0.495
- ordered residues: "CCAGAGCAAUAUUACGAGGU"
  self-splicing fitness (ln): -3.71
- ordered residues: "UCCAAGCAAUAUUACGUAUC"
  self-splicing fitness (ln): -4.43
- ordered residues: "AAGGAGCAAUAUUACGCUGU"
  self-splicing fitness (ln): -2.59

Please report self-splicing fitness (ln) for the following sequence: "CGAUAGCAAUAUUACGUUAA"
-3.59

Please report self-splicing fitness (ln) for the following sequence: "GUCCAGCAAUAUUACGUGGU"
-1.61

Please report self-splicing fitness (ln) for the following sequence: "UCACAGCAAUAUUACGAUGC"
-3.33

Please report self-splicing fitness (ln) for the following sequence: "GGACAGCAAUAUUACGUGAG"
0.177

Please report self-splicing fitness (ln) for the following sequence: "GGGAAGCAAUAUUACGGUUG"
-4.02

Please report self-splicing fitness (ln) for the following sequence: "AAUGAGCAAUAUUACGUGUA"
-3.35

----------
# self-splicing fitness (ln) annotations
# protocol details: self-splicing fitness, log relative to wild type (ln ratio); higher = more splicing; Tetrahymena group I intron in knt gene, E. coli kanamycin selection, DiMSum; sequences stand for … in CUCUCU…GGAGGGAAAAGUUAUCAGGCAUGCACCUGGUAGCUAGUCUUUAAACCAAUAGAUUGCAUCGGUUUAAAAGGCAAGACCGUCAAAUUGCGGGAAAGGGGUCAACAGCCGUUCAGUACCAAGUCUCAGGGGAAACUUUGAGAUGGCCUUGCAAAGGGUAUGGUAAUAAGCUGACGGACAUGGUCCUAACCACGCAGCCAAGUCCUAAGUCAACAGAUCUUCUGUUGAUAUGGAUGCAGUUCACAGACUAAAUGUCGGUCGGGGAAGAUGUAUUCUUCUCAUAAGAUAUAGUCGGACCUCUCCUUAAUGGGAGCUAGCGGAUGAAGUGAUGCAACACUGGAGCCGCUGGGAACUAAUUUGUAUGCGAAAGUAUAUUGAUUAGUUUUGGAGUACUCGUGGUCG
# study conditions: 37 °C
# print the numeric value only

- ordered residues: "CUCUAGCAAUAUUACGUGGA"
  numeric value: -2.17

Please report self-splicing fitness (ln) for the following sequence: "AGAAAGCAAUAUUACGUUGU"
-1.88

Please report self-splicing fitness (ln) for the following sequence: "CAGGAGCAAUAUUACGCUAG"
-1.1

Please report self-splicing fitness (ln) for the following sequence: "ACGCAGCAAUAUUACGGGAG"
-1.62

----------
# protocol details: self-splicing fitness, log relative to wild type (ln ratio); higher = more splicing; Tetrahymena group I intron in knt gene, E. coli kanamycin selection, DiMSum; sequences stand for … in CUCUCU…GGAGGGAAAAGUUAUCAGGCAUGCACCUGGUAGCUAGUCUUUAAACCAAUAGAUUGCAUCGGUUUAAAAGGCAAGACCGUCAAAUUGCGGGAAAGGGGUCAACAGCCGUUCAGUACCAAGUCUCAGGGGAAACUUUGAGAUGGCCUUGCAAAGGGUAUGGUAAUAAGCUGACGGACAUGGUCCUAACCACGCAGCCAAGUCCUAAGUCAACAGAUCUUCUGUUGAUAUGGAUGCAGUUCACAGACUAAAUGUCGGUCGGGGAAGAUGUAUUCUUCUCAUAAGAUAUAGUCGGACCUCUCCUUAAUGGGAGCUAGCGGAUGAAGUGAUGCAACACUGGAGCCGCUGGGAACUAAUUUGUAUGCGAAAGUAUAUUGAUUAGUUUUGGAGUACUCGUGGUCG
# study conditions: 37 °C
# self-splicing fitness (ln) annotations
# print the numeric value only

- ordered residues: "GAACAGCAAUAUUACGGCUC"
  self-splicing fitness (ln): -0.256
- ordered residues: "UUCCAGCAAUAUUACGCUAG"
  self-splicing fitness (ln): -1.96

Please report self-splicing fitness (ln) for the following sequence: "UGCAAGCAAUAUUACGCUUC"
-3.33

Please report self-splicing fitness (ln) for the following sequence: "CAGAAGCAAUAUUACGUAUG"
-2.56

Please report self-splicing fitness (ln) for the following sequence: "GUAAAGCAAUAUUACGGAUC"
0.205

Please report self-splicing fitness (ln) for the following sequence: "UAUGAGCAAUAUUACGUCAU"
-2.38

Please report self-splicing fitness (ln) for the following sequence: "GCUUAGCAAUAUUACGUGCC"
-0.354

Please report self-splicing fitness (ln) for the following sequence: "CCGCAGCAAUAUUACGCCGC"
-2.93

Please report self-splicing fitness (ln) for the following sequence: "AUCGAGCAAUAUUACGCGCU"
-2.87

----------
# protocol details: self-splicing fitness, log relative to wild type (ln ratio); higher = more splicing; Tetrahymena group I intron in knt gene, E. coli kanamycin selection, DiMSum; sequences stand for … in CUCUCU…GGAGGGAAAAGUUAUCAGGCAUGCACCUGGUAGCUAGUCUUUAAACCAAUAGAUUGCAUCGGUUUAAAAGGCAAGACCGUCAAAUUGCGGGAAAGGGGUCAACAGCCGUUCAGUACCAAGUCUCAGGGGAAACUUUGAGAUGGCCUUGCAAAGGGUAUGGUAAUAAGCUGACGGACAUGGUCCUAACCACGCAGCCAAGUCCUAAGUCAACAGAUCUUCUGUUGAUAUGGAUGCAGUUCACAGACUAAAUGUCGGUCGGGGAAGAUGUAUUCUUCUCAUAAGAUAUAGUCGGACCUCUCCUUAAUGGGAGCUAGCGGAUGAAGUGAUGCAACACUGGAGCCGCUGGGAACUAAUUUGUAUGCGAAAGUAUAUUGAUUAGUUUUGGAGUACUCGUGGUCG
# study conditions: 37 °C
// 0 strictly below -1 in self-splicing fitness (ln); 1 otherwise

Completed entries (count: 8):
- ordered residues: "GGCUAGCAAUAUUACGUAAA"
  class: 1
- ordered residues: "UCCGAGCAAUAUUACGUGAA"
  class: 0
- ordered residues: "GGAAAGCAAUAUUACGACUG"
  class: 1
- ordered residues: "UUCCAGCAAUAUUACGGAAA"
  class: 0
- ordered residues: "AAGUAGCAAUAUUACGAAUC"
  class: 0
- ordered residues: "UGGAAGCAAUAUUACGGAUU"
  class: 0
- ordered residues: "CUAUAGCAAUAUUACGCAAG"
  class: 0
- ordered residues: "GGCAAGCAAUAUUACGCACC"
  class: 0

Note: attention shifts to another entry.
Does "UCACAGCAAUAUUACGUACC" have a reported self-splicing fitness (ln) of at least -1?
0
